Below, each entry is listed alongside its reported self-cleavage.
B1: CPEB3 Ribozyme (parent)
chain: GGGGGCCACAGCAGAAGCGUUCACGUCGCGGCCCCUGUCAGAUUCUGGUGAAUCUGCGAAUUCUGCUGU

- Variants of: B1
- assay_info: self-cleavage, relative activity (ratio to wild type); higher = more cleavage; co-transcriptional
Answer with a number only.

GGGGGCCACAGCAGAAGCGUUCACGUCGCCGCCCCUGUCAGAUUCUGGUGAGUCUGCGAAUUCUGCUGU; 0.724

# input variant: GGGGGCCACAGCAGAAGCGUUCACGUCGCGGCCCGUGUCAGACUCUGGUGAAUCUGCGAAUUCUGCUGU ; wanted: its self-cleavage
0.372

Check GGGGGCCACAGCCGAAGCGUUCAUGUCGCGGCCCCUGUCAGAUUCUGGUGAAUCUGCGAAUUCUGCUGU too.
0.543

Check GGGGGCCACAGUAGAAGCGUUCACGUCGCGGCCCCUGUCAGAUUCUGGUGAAUCUGCGAAUACUGCUGU too.
0.819

Check GGGGGCCACAGCAGGAGCGUUCGCGUCGCGGCCCCUGUCAGAUUCUGGUGAAUCUGCGAAUUCUGCUGU too.
0.959

Check GGGGGCCACAGCAGCAGCGUUCACGUCGCGGCCCCUGUCAGAUUCUGGUGAAUCUGCGAAGUCUGCUGU too.
0.723
